# system_name: FXR ligand binding domain (GST-FXR LBD fusion protein) (Homo sapiens)
# Construct: made in house; host or cells: E. coli BL21(pLysS)
# method_notes: Radioligand binding assay (scintillation proximity, radioligand displacement)
# test_context: GST-FXR LBD on SPA beads, 20 nM radioligand, test compound 6×10^−9 M to 2.5×10^−5 M
pIC50: −log10 of the molar value.
property: pIC50

1) CO[C@H](c1ccccc1)c1nc2cc(F)ccc2n1C(C(=O)N[C@H]1CC[C@H](C(=O)O)CC1)C1CCCCC1 (stereo partly drawn) :: 5.17
2) CO[C@H](c1ccccc1)c1nc2cc(F)c(F)cc2n1[C@H](C(=O)Nc1ccc(C(=O)O)cc1Cl)C1CCCCC1 (single isomer, unassigned) :: 7.22
3) CO[C@H](c1ccccc1)c1nc2cc(F)c(F)cc2n1[C@@H](C(=O)Nc1ccc(C(=O)O)cc1Cl)C1CCCCC1 (single isomer, unassigned) :: 6.40
4) CO[C@@H](c1ccccc1)c1nc2cc(F)c(F)cc2n1[C@@H](C(=O)Nc1ccc(C(=O)O)cc1Cl)C1CCCCC1 (single isomer, unassigned) :: 6.52

A. CO[C@H](c1ccccc1)c1nc2cc(F)c(F)cc2n1[C@@H](C(=O)Nc1ccc(C(=O)O)cc1)C1CCCCC1 (single isomer, unassigned)
B. CO[C@@H](c1ccccc1)c1nc2cc(F)c(F)cc2n1[C@H](C(=O)Nc1ccc(C(=O)O)cn1)C1CCCCC1 (single isomer, unassigned)
Problem: Param metric = pIC50; output whichever of A , B has the minimum value. Answer by stating the label of the chosen item.
Result: B
(B: 5.59, A: 5.80)

###

# system_name: FXR ligand binding domain (GST-FXR LBD fusion protein) (Homo sapiens, UniProt Q96RI1)
# Sequence (Q96RI1 193-472 isoform Q96RI1-2 limits assumed): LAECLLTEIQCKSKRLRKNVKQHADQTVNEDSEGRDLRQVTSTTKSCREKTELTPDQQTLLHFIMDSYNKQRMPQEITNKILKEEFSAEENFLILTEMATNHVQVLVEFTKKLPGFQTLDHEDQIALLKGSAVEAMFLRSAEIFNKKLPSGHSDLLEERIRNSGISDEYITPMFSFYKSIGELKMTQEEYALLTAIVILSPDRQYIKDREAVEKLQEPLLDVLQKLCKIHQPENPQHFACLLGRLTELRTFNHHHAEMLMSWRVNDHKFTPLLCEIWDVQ
# method_notes: Radioligand binding assay (scintillation proximity, radioligand displacement)
# test_context: GST-FXR LBD on SPA beads, 20 nM radioligand, test compound 6×10^−9 M to 2.5×10^−5 M
# Method: The following tests were carried out in order to determine the activity of the compounds of formula (I). […] Binding of test substances to the FXR ligand binding domain was assessed in a radioligand displacement assay. […] All binding assays were performed in 96-well plates and the amount of bound ligand was measured on a Packard TopCount using OptiPlates (Packard). […]
property: IC50 (nM)

Use these answered entries as a reference point.
1) CO[C@@H](c1ccccc1)c1nc2cc(F)c(F)cc2n1[C@H](C(=O)Nc1ccc(C(=O)O)cc1)C1CCCCC1 (single isomer, unassigned) :: 1000
2) CO[C@H](c1ccccc1)c1nc2cc(F)c(F)cc2n1[C@@H](C(=O)Nc1ccc(C(=O)O)cc1C)C1CCCCC1 (single isomer, unassigned) :: 5000
3) CO[C@H](c1ccccc1)c1nc2cc(F)c(F)cc2n1[C@@H](C(=O)Nc1ccc(C(=O)O)cc1F)C1CCCCC1 (single isomer, unassigned) :: 500
4) CO[C@H](c1ccccc1)c1nc2cc(F)c(F)cc2n1[C@H](C(=O)Nc1ccc(C(=O)O)cc1)C1CCCCC1 (single isomer, unassigned) :: 300
5) CO[C@H](c1ccccc1)c1nc2cc(F)ccc2n1C(C(=O)N[C@H]1CC[C@H](CC(=O)O)CC1)C1CCCCC1 (some centres unmarked) :: 21000
6) CO[C@@H](c1ccccc1)c1nc2cc(F)c(F)cc2n1[C@@H](C(=O)Nc1ccc(C(=O)O)cc1)C1CCCCC1 (single isomer, unassigned) :: 1900
7) CO[C@H](c1ccccc1)c1nc2cc(F)c(F)cc2n1[C@H](C(=O)Nc1ccc(C(=O)O)cc1F)C1CCCCC1 (single isomer, unassigned) :: 30
8) CO[C@@H](c1ccccc1)c1nc2cc(F)c(F)cc2n1[C@@H](C(=O)Nc1ccc(C(=O)O)cc1F)C1CCCCC1 (single isomer, unassigned) :: 500

1. CO[C@@H](c1ccccc1)c1nc2cc(F)c(F)cc2n1[C@@H](C(=O)Nc1ccc(C(=O)O)cn1)C1CCCCC1 (single isomer, unassigned)
2. CO[C@@H](c1ccccc1)c1nc2cc(F)c(F)cc2n1[C@H](C(=O)Nc1ccc(C(=O)O)cc1F)C1CCCCC1 (single isomer, unassigned)
Problem: Endpoint returns whichever of 1 and 2 has the numerically higher IC50. Answer by stating the label of the chosen item.
Result: 1
(1: 1700 nM, 2: 400 nM)
